List of Kd tested on kinase enzymes (Homo sapiens).
// return numeric value only (unit: µM, not printed)

CC(Nc1cc(F)cc(F)c1)c1cc(C(=O)N(C)CCN(C)C)cc2ncc(N3CCOCC3)nc12 (single isomer, unassigned) [Compound 182] ... 0.912

Sample CC(Nc1ccc(F)c(F)c1)c1cc(C(=O)N2CCN3CCC[C@H]3C2)cc2ncc(N3CCOCC3)nc12 (single isomer, unassigned) [Compound 287a] , system: kinase enzymes (Homo sapiens). Its Kd is 20.9

----------
Listed here are compounds together with their documented IC50.
system: Akt phosphorylated at Ser473 in PC-3 cells; experiment: Cellular assay: phosphorylation of Akt at Ser473 in PC-3 cells (MSD ELISA); assay type: cell-based; conditions: PC-3 cells, 60 min compound incubation, MSD ELISA; read-out: IC50 pAkt_S473

These recorded examples may help you get a feel for the data.
CC(Nc1cccc(F)c1)c1cc(C(=O)NC[C@@H](C)O)cc2ncc(N3CCOCC3)nc12 (single isomer, unassigned) [Compound 338a] ... 115 nM
CC(Nc1cc(F)cc(F)c1)c1cc(CN2CCn3nccc3C2)cc2ncc(N3CCOCC3)nc12 (single isomer, unassigned) [Compound 222] ... > 513 nM

# ---- query compound ----
Bench note, Akt phosphorylated at Ser473 in PC-3 cells: entry CC(Nc1cc(F)cc(F)c1)c1cc(C(=O)N(C)C)cc2ncc(N3CCOCC3)nc12 (single isomer, unassigned) [Compound 13] , its IC50 = > 513 nM

----------
molecular target: kinase enzymes (Homo sapiens)
Result Type: log10 Kd (log10 of the value in µM)
Heads up, the numbers here are log10 of Kd in µM units.

Below are worked cases with known answers.
C[C@H](Nc1cc(F)cc(F)c1)c1cc(C(=O)NCCN(C)C)cc2ncc(N3CCOCC3)nc12 ... 0.76
CC(Oc1ccccc1)c1cc(C(=O)N(C)C)cc2ncc(N3CCOCC3)nc12 (stereo not shown) ... 0.56
C[C@@H]1CN(c2cnc3cc(C(=O)N(C)C)cc(C4CCCN4c4cc(F)cc(F)c4)c3n2)CCO1 (stereo partly shown) [Compound 3] ... -1.33
CC(Nc1cc(F)cc(F)c1)c1cc(C(=O)O)cc2ncc(N3CCOCC3)nc12 (single isomer, unassigned) [Compound 83b] ... -0.77
CN(C(=O)c1cc(NCc2cc(F)cc(F)c2)c2nc(N3CCOCC3)cnc2c1)[C@H]1CCNC1 ... 0.73
CN(C)C(=O)c1cc(N2CCC[C@@H]2c2cc(F)cc(F)c2)c2nc(C3=CCOCC3)cnc2c1 ... 1.03
CC(Nc1ccc(F)c(F)c1)c1cc(C(=O)NCCCO)cc2ncc(N3CCOCC3)nc12 (single isomer, unassigned) [Compound 280a] ... 0.23
OC1CN(Cc2cc(C3CCCN3c3cc(F)cc(F)c3)c3nc(N4CCOCC4)cnc3c2)C1 (stereo not shown) ... -1.30
O=Cc1cc(C2CCCN2c2cc(F)cc(F)c2)c2nc(N3CCOCC3)cnc2c1 (stereo not shown) ... -0.47
O=C(NCCCO)c1cc(C2CCCN2c2cc(F)cc(F)c2)c2nc(N3CCOCC3)cnc2c1 (stereo not shown) ... -1.19

Per the reported kinase enzymes (Homo sapiens) data, Cc1ccc(NC(C)c2cc(C(=O)NCCN(C)C)cc3ncc(N4CCOCC4)nc23)cc1F (single isomer, unassigned) [Compound 407a] has log10 Kd of 0.31

Readout log10 Kd for CC(Nc1ccc(F)c(F)c1)c1cc(C(=O)NCCN(C)C)cc2ncc(N3CCOCC3)nc12 (stereo not shown) [Compound 299b] , test system kinase enzymes (Homo sapiens), was 1.12

Entry `CNCCN(C)C(=O)c1cc(N(C)Cc2cccc(F)c2C)c2nc(N3CCOCC3)cnc2c1` under kinase enzymes (Homo sapiens) had log10 Kd of 0.47

Tested system kinase enzymes (Homo sapiens); log10 Kd recorded for CC(Nc1cc(F)cc(F)c1)c1cc(C(=O)N2CC3(C2)CS(=O)(=O)C3)cc2ncc(N3CCOCC3)nc12 (stereo not shown) was 0.03

Reported kinase enzymes (Homo sapiens) log10 Kd for item `O=C(NCCO)c1cc(CNc2cc(F)cc(F)c2)c2nc(N3CCOCC3)cnc2c1` was 0.72

Recorded values, source patent US10526316B2.
